Values were extracted from patent US20230265183A1.

Target: T1, human Nectin-4 (human, UniProt Q96NY8 32-510)
T1 sequence (looked up): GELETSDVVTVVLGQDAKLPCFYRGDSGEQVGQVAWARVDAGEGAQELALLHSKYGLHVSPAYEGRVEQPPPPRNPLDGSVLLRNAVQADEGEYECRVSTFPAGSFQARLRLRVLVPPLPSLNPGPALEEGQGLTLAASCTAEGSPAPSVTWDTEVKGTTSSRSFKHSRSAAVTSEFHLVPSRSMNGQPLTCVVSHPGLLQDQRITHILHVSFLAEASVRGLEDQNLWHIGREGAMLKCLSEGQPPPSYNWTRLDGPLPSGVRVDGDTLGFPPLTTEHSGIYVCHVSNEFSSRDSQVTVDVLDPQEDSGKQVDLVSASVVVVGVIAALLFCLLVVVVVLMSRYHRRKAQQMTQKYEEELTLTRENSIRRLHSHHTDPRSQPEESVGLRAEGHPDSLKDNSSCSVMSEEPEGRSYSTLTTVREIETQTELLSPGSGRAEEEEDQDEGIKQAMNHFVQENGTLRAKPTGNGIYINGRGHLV
Assay: cell-based or functional assay
Measured Endocytosis efficiency (%), listed per entry.
Your answer is read as %, so omit the unit and give the number.

BINDER	MEASURED ENDPOINT	EXPERIMENTAL RESULT
20M12 xiIgG-E (antibody, V domains shown, vcMMAE conjugated to the TECP-reduced antibody; residues not stated; DAR 4.0±1) VH: QVQLQQSGPELVKPGASVRISCKASGYTFTSYYIHWVKQRPGQGLEWIGWIYPGNANNKYNENFKGKATLTADKSSSTAYMQLSSLTSEDSAVYFCARSVYYFDYWGQGTTLTVSS VL: SVVMTQTPKFLLVSAGDRVTITCKASQSVSNDVAWYQQKPGQSPKLLIYYASNRNTGVPDRFTGSGYGTDFTFNISTVQAEDLAVYFCQQDYSSPYTFGGGTKLEIKR	Endocytosis efficiency (%)	67
42D20 hz43-E (antibody, V domains shown, vcMMAE conjugated to the TECP-reduced antibody; residues not stated; DAR 4.0±1) VH: QVQLQESGPGLVKPSETLSLTCTVSGFSLIDYGVSWIRQPPGKGLEWIGVIWGDAKIYYNSVLKSRVTISKDNSKSQVSLKLSSVTAADTAVYYCAKQGGLLFYAMDYWGQGTLVTVSS VL: DIVMTQSPDSLAVSLGERATINCKSSQSLLNTYSQKNYLAWYQQKPGQSPKLLIYFASTRESGVPDRFSGSGSETDFTLTISSLQAEDLAVYFCQQHYNTPFTFGAGTKLELKR	Endocytosis efficiency (%)	68.9
42D20 hz10-E (antibody, V domains shown, vcMMAE conjugated to the TECP-reduced antibody; residues not stated; DAR 4.0±1) VH: QVQLQESGPGLVKPSETLSLTCTVSGFSLIDYGVSWIRQPPGKGLEWIGVIWGDGKIYYNSVLKSRVTISKDNSKSQVSLKLSSVTAADTAVYYCAKQGGLLFYAMDYWGQGTLVTVSS VL: DIVMTQSPDSLAVSLGERATINCKSSQSLLNSYSQKNYLAWYQQKPGQPPKLLIYFASTRESGVPDRFSGSGSGTDFTLTISSLQAEDVAVYYCQQHYNTPFTFGAGTKLELKR	Endocytosis efficiency (%)	74
42D20 hz64-E (antibody, V domains shown, vcMMAE conjugated to the TECP-reduced antibody; residues not stated; DAR 4.0±1) VH: QVQLQESGPGLVKPSETLSLTCTVSGFSLIDYGVSWIRQPPGKGLEWIGVIWGGGKIYYNSVLKSRVTISKDNSKSQVSLKLSSVTAADTAVYYCAKQGGLLFYAMDYWGQGTLVTVSS VL: DIVMTQSPDSLAVSLGERATINCKSSQSLLNKYSQKNYLAWYQQKPGQPPKLLIYFASTRESGVPDRFSGSGSGTDFTLTISSLQAEDVAVYYCQQHYNTPFTFGAGTKLELKR	Endocytosis efficiency (%)	66.6
42D20 hz63-E (antibody, V domains shown, vcMMAE conjugated to the TECP-reduced antibody; residues not stated; DAR 4.0±1) VH: QVQLQESGPGLVKPSETLSLTCTVSGFSLIDYGVSWIRQPPGKGLEWIGVIWGGGKIYYNSVLKSRVTISKDNSKSQVSLKLSSVTAADTAVYYCAKQGGLLFYAMDYWGQGTLVTVSS VL: DIVMTQSPDSLAVSLGERATINCKSSQSLLNTYSQKNYLAWYQQKPGQSPKLLIYFASTRESGVPDRFSGSGSETDFTLTISSLQAEDLAVYFCQQHYNTPFTFGAGTKLELKR	Endocytosis efficiency (%)	67.9

Alright, here's another binder for you.
Looking up 20M12 hz11-E (antibody, human IgG1, kappa, V domains shown, vcMMAE conjugated to the TECP-reduced antibody; residues not stated; DAR 4.0±1) VH: QVQLVQSGAEVKKPGASVKVSCKASGYTFTSYYIHWVRQAPGQRLEWMGWIYPGNANNKYNENFKGRVTITADKSASTAYMELSSLRSEDTAVYYCARSVYYFDYWGQGTLVTVSS VL: EVVMTQSPATLSVSPGERATLSCKASQSVSNDVAWYQQKPGQAPRLLIYYASNRNTGIPARFSGSGSGTEFTLTISSLQSEDLAVYFCQQDYSSPYTFGGGTKVEIKR , I found its Endocytosis efficiency (%) recorded as 58.4
